# System: human normal hepatocytes (LO2)
# METHOD: MTT assay, inhibition (toxicity) of LO2 cell proliferation
# Assay type: cell-based
# MEASUREMENT_CONTEXT: Hepatocyte, 72 h, read-out: inhibitory activity against LO2, IC50
pIC50: −log10 of the molar value.
METRIC: pIC50

Some molecules with known pIC50 results, for comparison:
| MOLECULE | pIC50 |
| --- | --- |
| C/C=C\C=C\C/C=C\CCCCCCCc1cccc(O)c1O | 4.18 |
| CC1C=CC(C/C=C\CCCCCCCc2cccc(O)c2O)C2(Cl)C(=O)OC(=O)C12Cl (stereo not shown) | < 3.70 |
| CC(C)C1=CC[C@H]2C(=C1)CC[C@@H]1[C@]2(C)CCC[C@@]1(C)C(=O)O | < 3.70 |

Here is the next item to consider.
Please report the recorded pIC50 for CC1C=CC(C/C=C\CCCCCCCc2cccc(O)c2O)C2(F)C(=O)OC(=O)C12F (stereo not shown) .
< 3.70

The measurements presented in this section are drawn from paper PMC6214004.
